- Test system: S. enteritidis
- Type: cell-based, Salmonella enteritidis
readout.type: S. enteritidis counts at 10 min (log CFU/ml)

compound	unit.abbrev	recorded.value
CC(=O)CCC(=O)O [3.0% levulinic acid (pH 2.7), levulinic acid]	log CFU/ml	6.2
CC(=O)CCC(=O)O [0.1% levulinic acid (pH 2.5), levulinic acid]	log CFU/ml	7.0
CC(=O)CCC(=O)O [1.5% levulinic acid (pH 2.8), levulinic acid]	log CFU/ml	6.7
CC(=O)O [0.5% acetic acid (pH 3.1), acetic acid]	log CFU/ml	6.7
CCCCCCCCCCCCOS(=O)(=O)[O-].[Na+] [0.05% sodium dodecyl sulfate (pH 4.4), sodium dodecyl sulfate]	log CFU/ml	7.1
CC(=O)CCC(=O)O [0.5% levulinic acid (pH 2.6), levulinic acid]	log CFU/ml	6.9
CC(=O)CCC(=O)O [2.5% levulinic acid (pH 2.6), levulinic acid]	log CFU/ml	6.4
CC(=O)CCC(=O)O [1.0% levulinic acid (pH 2.9), levulinic acid]	log CFU/ml	6.9
CC(=O)CCC(=O)O [2.0% levulinic acid (pH 2.8), levulinic acid]	log CFU/ml	6.8
